System: IL3000 T. congolense (drug sensitive) strain
experimental_protocol: In vitro Alamar Blue 72 hrs drug sensitivity assay for T. congolense
Assay type: cell-based
conditions_used: Trypanosoma congolense, IL3000 T. congolense bloodstream form, read-out: T. congo Act.
Procedure: In Vitro Alamar Blue 72 Hrs Drug Sensitivity Assay for T. Congolense. Compounds were tested in vitro for chemotherapeutic efficacy against the IL3000 T. congolense (drug sensitive) strain using an Alamar Blue assay. Test compounds were prepared as 10 mg/mL DMSO stocks for each assay run. […] Plates were then read using a fluorescent plate reader (Spectramax, Gemini XS, Bucher Biotec, Basel, Switzerland) using an excitation wavelength of 536 nm and an emission wavelength of 588 nm. […]
For each of the compounds below, state its IC50.

Query: Which IC50 reading was recorded for the compound CC1(Nc2ncc3nc(Nc4cccc(C(F)(F)F)c4)n(C4CCC(C#N)CC4)c3n2)CCOCC1 (centres unmarked) ?
Response: 150 to 350 nM

Query: Which IC50 reading was recorded for the compound CC1(Nc2ncc3nc(Nc4cc(F)cc(Cl)c4)n([C@H]4CC[C@@H](CN)CC4)c3n2)CCOCC1 ?
Response: < 150 nM

Query: Which IC50 reading was recorded for the compound CC1(Nc2ncc3nc(Nc4cc(C(F)(F)F)ccc4F)n(C4CCC(CN)CC4)c3n2)CCC1 (centres unmarked) ?
Response: 150 to 350 nM

Query: Which IC50 reading was recorded for the compound NC1CCC(n2c(Nc3cccc(Cl)c3)nc3cnc(NCC(F)(F)F)nc32)CC1 (centres unmarked) ?
Response: 350 to 500 nM

Query: Which IC50 reading was recorded for the compound CNC[C@H]1CC[C@@H](n2c(Nc3cccc(Cl)c3)nc3cnc(NC4(C)CCOCC4)nc32)CC1 ?
Response: < 150 nM

Query: Which IC50 reading was recorded for the compound OCC1CCC(n2c(Nc3cccc(Cl)c3)nc3cnc(NC4CCOCC4)nc32)CC1 (centres unmarked) ?
Response: 350 to 500 nM

Query: Which IC50 reading was recorded for the compound CC1(Nc2ncc3nc(Nc4cccc(C(F)(F)F)n4)n([C@H]4CC[C@@H](CN)CC4)c3n2)CCOCC1 ?
Response: 150 to 350 nM

Query: Which IC50 reading was recorded for the compound CC1(Nc2ncc3nc(Nc4cccc(Cl)c4)n(C4CCC(O)CC4)c3n2)CCCC1 (centres unmarked) ?
Response: 350 to 500 nM
